# System: HL-60 leukemia cells
# experimental_protocol: CellTiter-Blue cell viability assay on HL-60
# Type: cell-based
# condition_description: Homo sapiens, HL-60 cells, 48 h, read-out: IC50 value, HL-60 cell viability

| molecule | IC50 (nM) |
| --- | --- |
| COc1ccc(/C=C2\N=C(C)N(c3ccc(CC(=O)NCc4ccccc4)cc3)C2=O)cc1 [KIM-161C] | 262 |

====

// values below are reported pIC50
# Tested on: PC3 (prostate) cancer cells
# experimental_protocol: SRB cytotoxicity assay against PC3
# Assay type: cell-based, human
# condition_description: Homo sapiens, 72 h treatment
pIC50: −log10 of the molar value.
readout_name: pIC50

| compound | result_modifier | val |
| --- | --- | --- |
| CC(=O)N/C(=C/c1ccccc1)C(=O)Nc1ccc(CC(=O)NCc2ccccc2)cc1 [KIM-111V] | < | 4.00 |
| COc1cc(/C=C(/NC(=O)c2ccccc2)C(=O)Nc2ccc(CC(=O)NCc3ccccc3)cc2)ccc1O [KIM-231V] | < | 4.00 |
| O=C(Cc1ccc(NC(=O)/C(=C\c2ccc(Cl)cc2)NC(=O)c2ccccc2)cc1)NCc1ccc(F)cc1 [KIM-2248V] | = | 4.07 |
| CC1=N/C(=C\c2ccc(Cl)cc2)C(=O)N1c1ccc(CC(=O)NCc2ccccc2)cc1 [KIM-121C] | = | 5.16 |
| O=C(Cc1ccc(NC(=O)/C(=C\c2ccc(Cl)cc2)NC(=O)c2ccccc2)cc1)NCc1ccc(-c2ccccc2)cc1 [KIM-2249V] | = | 4.04 |
| COc1ccc(CNC(=O)Cc2ccc(NC(=O)/C(=C\c3ccc(Cl)cc3)NC(=O)c3ccccc3)cc2)cc1 [KIM-2216V] | < | 4.00 |
| O=C(Cc1ccc(NC(=O)/C(=C\c2ccccc2)NC(=O)c2ccccc2)cc1)NCc1ccccc1 [KIM-211V] | < | 4.00 |
| Cc1cc(F)ccc1/C=C(/NC(=O)c1ccccc1)C(=O)Nc1ccc(CC(=O)NCc2ccccc2)cc1 [KIM-2101V] | < | 4.00 |
| CC(=O)N/C(=C/c1ccc(Cl)cc1)C(=O)Nc1ccc(CC(=O)NCc2ccccc2)cc1 [KIM-121V] | = | 4.24 |
| O=C(Cc1ccc(NC(=O)/C(=C\c2ccc(Cl)cc2)NC(=O)c2ccccc2)cc1)NCc1ccco1 [KIM-2230V] | = | 4.01 |
| CC(NC(=O)Cc1ccc(NC(=O)/C(=C\c2ccc(Cl)cc2)NC(=O)c2ccccc2)cc1)c1ccccc1 (stereo not drawn) [KIM-2247V] | < | 4.00 |
| O=C(Cc1ccc(NC(=O)C(=Cc2ccc(Cl)cc2)NC(=O)c2ccccc2)cc1)NCc1ccccc1 (stereo in doubt) [KIM-221V] | = | 5.39 |

====

# Tested on: PC3 (prostate) cancer cells
# experimental_protocol: SRB cytotoxicity assay against PC3
# Format: cell-based, human
# condition_description: Homo sapiens, 72 h treatment

| molecule | IC50 |
| --- | --- |
| O=C(Cc1ccc(NC(=O)/C(=C\c2ccc(Cl)cc2)NC(=O)c2ccccc2)cc1)NCCc1ccccc1 [KIM-2246V] | > 100 µM |
| O=C(Cc1ccc(NC(=O)/C(=C\c2ccc(Cl)cc2)NC(=O)c2ccccc2)cc1)NCc1cccc(F)c1 [KIM-2250V] | > 100 µM |
| O=C(Cc1ccc(NC(=O)/C(=C\c2ccc(Cl)cc2)NC(=O)c2ccccc2)cc1)Nc1ccccc1 [KIM-22101V] | > 100 µM |
| CN(Cc1ccccc1)C(=O)Cc1ccc(NC(=O)/C(=C\c2ccc(Cl)cc2)NC(=O)c2ccccc2)cc1 [KIM-2245V] | > 100 µM |
| O=C(Cc1ccc(N2C(=O)/C(=C/c3ccco3)N=C2c2ccccc2)cc1)NCc1ccccc1 [KIM-241C] | 0.243 µM |
| COc1cc(/C=C2\N=C(C)N(c3ccc(CC(=O)NCc4ccccc4)cc3)C2=O)ccc1O [KIM-131C] | 5.83 µM |
| COc1ccc(/C=C(/NC(=O)c2ccccc2)C(=O)Nc2ccc(CC(=O)NCc3ccccc3)cc2)cc1 [KIM-261V] | > 100 µM |

====

# System: PC3 (prostate) cancer cells
# experimental_protocol: SRB cytotoxicity assay against PC3
# Assay type: cell-based, human
# condition_description: 72 h treatment
We begin with a simple list: items and their reported IC50.
readout_name: IC50

| compound | target_desc | readout_name | val |
| --- | --- | --- | --- |
| COc1ccc(/C=C(/NC(C)=O)C(=O)Nc2ccc(CC(=O)NCc3ccccc3)cc2)cc1 [KIM-161V] | PC3 (prostate) cancer cells | IC50 | 41.1 µM |
| COc1cc(/C=C(/NC(C)=O)C(=O)Nc2ccc(CC(=O)NCc3ccccc3)cc2)ccc1O [KIM-131V] | PC3 (prostate) cancer cells | IC50 | 61.3 µM |

====

readout_name: melting point

| compound | val |
| --- | --- |
| O=C(Cc1ccc(N2C(=O)/C(=C/c3ccco3)N=C2c2ccccc2)cc1)NCc1ccccc1 [KIM-241C] | 199 to 200 °C |
| COc1cc(/C=C2\N=C(c3ccccc3)N(c3ccc(CC(=O)NCc4ccccc4)cc3)C2=O)ccc1O [KIM-231C] | 109 to 112 °C |
| COc1ccc(/C=C2\N=C(c3ccccc3)N(c3ccc(CC(=O)NCc4ccccc4)cc3)C2=O)cc1 [KIM-261C] | 193 °C |
| CC1=N/C(=C\c2ccccc2)C(=O)N1c1ccc(CC(=O)NCc2ccccc2)cc1 [KIM-111C] | 164 to 165 °C |
| O=C(Cc1ccc(N2C(=O)/C(=C/c3ccccc3)N=C2c2ccccc2)cc1)NCc1ccccc1 [KIM-211C] | 218 to 219 °C |
| CC(=O)N/C(=C/c1ccccc1)C(=O)Nc1ccc(CC(=O)NCc2ccccc2)cc1 [KIM-111V] | 197 °C |
| O=C(Cc1ccc(N2C(=O)/C(=C/c3ccc(Cl)cc3)N=C2c2ccccc2)cc1)NCc1ccccc1 [KIM-221C] | 218 to 220 °C |
| CC1=N/C(=C\c2ccc(Cl)cc2)C(=O)N1c1ccc(CC(=O)NCc2ccccc2)cc1 [KIM-121C] | 209 to 211 °C |

All figures here come from patent US11174233B1.
